# Measurement target: T1, Human Fibroblast Activation Protein (FAP) on HT1080 cells (human, UniProt Q12884 1-760)
# T1 construct: HT1080 cells transduced with human FAP cDNA; also called HT1080-FAP; FAP+ HT1080
# Measurement description: flow cytometry, scFv-Fc on HT1080-FAP cells
Quantity kind: MFI (MFI)
// units = MFI; emit number, no label

Worked examples follow.
FAP.84.A11 (Fc fusion, Tested as scFv-Fc; orientation, linker and Fc of this construct not specified) VH: DVQLVESGGGLVQPGGSLRLSCAASGFSMSNFAMTWVRQAPGEGLEWVSGIRGSGTTYYADSVKGRFTVSRDNSKNTLYLQMNSLRAEDTAIYYCAKTWGTEYFDYWGLGTLVTVSS VL: EIVLTQSPGTLSLSPGERATLSCRASQPINNYLAWYQQKPGQAPRLLIFSASNRATGIPDRFSGSGSGTEFTLTISSLEPEDFAVYYCQQYYDWPPYTFGGGTKVEIK: 27300
FAP.65.F1 (Fc fusion, Tested as scFv-Fc; orientation, linker and Fc of this construct not specified) VH: DVQLVESGGGLVHPGGSLRLSCAASTFTFANYIMSWVRQAPGKGLEWVSGITGSSTNTYYTDSVKGRFTISRDNSKNTLYLEMNSLRAEDTAVYYCAKHQLYPYYAMDVWGQGTTVTVSS VL: EIVLTQSPGSLSLSPGERATLSCRASQPIDSYLAWYQQKPGQAPRLLIYGASTRATDIPDRFSGSGSGTEFTLTISSLQSEDFAVYYCQQYYDWPPVTFGGGTKVEIK: 35600

The record that follows has no MFI shown yet.
Request: // lookup MFI for FAP.84.B8 (Fc fusion, Tested as scFv-Fc; orientation, linker and Fc of this construct not specified) VH: DVQLVESGGSVVRPGESLRLSCAASGFPFSSYPMTWVRQAPGEGLEWVSSIRGSGDRIHYADSVKGRFTISKDSSNNTLYLQMNSLRAEDTAVYYCATGWNFFDYWGLGTLVTVSS VL: EIVLTQSPGTLSLSPGERATLSCRASQTVATYLAWYQQKPGQAPRLLIYAAISRATGIPDRFSGSGSGTDFTLTITRLEPEDSAVYYCQQYKDWPPLTFGGGTKVEIK
Result: 24300

Origin of measurements: patent US20250136720A1
